- System: SK-MEL-2 melanoma
- experimental-details: NCI-60 one-dose screen, 48 h
- condition-context: 10 µM unless noted
This is part of a sample that, as a whole, favours compounds with a hit. Of some 83,000 tested, about 20% had one in any assay. Calls of active or inactive are those of the source. Rule for the calls: active = growth percent below 10; inactive = the rest.
Classes used: T = active, F = inactive

molecule	classification
O=S(=O)(NCCNc1cc(-c2cn(-c3ccccc3)nc2-c2ccccc2)ccn1)c1cccc2ccccc12	F
COc1cc(-c2csc(NC(=O)Nc3ccc(Cl)cc3Cl)n2)cc(OC)c1OC	F
C/C(=C\c1csc(C)n1)[C@@H]1C[C@@H]2O[C@]2(C)CCC[C@H](C)[C@H](O)[C@@H](C)C(=O)C(C)(C)[C@@H](O)CC(=O)N1	T
O=C(c1ccccc1)C(Cl)C(Cl)c1ccccc1 (centres undefined)	F
CC(Br)C(O)c1cc2c(cc1Br)OCO2 (centres undefined)	F
Cc1ccc(S(=O)(=O)N2CCC(C(=O)Nc3ccc(F)cc3F)CC2)cc1	F
Cc1nc2scc(-c3ccccc3)n2c(=O)c1CCO	F
COc1cc2nc(Cl)nc(NCCO)c2cc1OC	F
NC(=O)c1cccc(N2Cc3ccccc3OC3=C2C(=O)c2c(O)ccc(O)c2C3=O)c1	T
COC1=CC(c2ccc[nH]2)=N/C1=C\c1[nH]c(C)c(C(=O)CCCCC(=O)Oc2ccc3c(c2)CCC2C3CC[C@]3(C)[C@@H](O)CC[C@@H]23)c1C (some centres undefined)	F
COC1=CC(c2ccc[nH]2)=N/C1=C\c1[nH]c(C)c(C(=O)CCC(=O)Oc2ccc3c(c2)CCC2C3CC[C@]3(C)[C@@H](O)CC[C@@H]23)c1C (some centres undefined)	T
Cc1cccc2cc(/C=C/C(=O)/C=C/c3ccc(Cl)cc3)c(=O)[nH]c12	F
CC(=O)Nc1ccc2c(c1)/C(=C\C=C/c1ccc([N+](C)(C)C)cc1)c1ccccc1-2	F
CCN(C(=O)c1cc2ncccc2[nH]1)[C@H]1CCC[C@@H](NCc2cccc(F)c2)C1	F
Cc1cc2c(c(=O)o1)C(c1ccc(OC(=O)N3CCOCC3)cc1)C(C#N)=C(N)O2 (centres undefined)	F
C=CCc1cc(Cl)cc2c(OC(C)=O)c(C(C)=O)c(-c3ccccc3)nc12	F
CCOC(=O)CC/C(C)=N\Nc1ccc([N+](=O)[O-])cc1	F
CC(=O)c1cc(C(=O)c2ccc3c(c2)Sc2ccccc2N3)c2cc(C)ccn12	F
CCCC(C(=O)OCC)C(C)OC(=O)OCC (centres undefined)	F

====

Below, each of the compounds is paired with its reported growth value.
- System: A549/ATCC NSCLC
- experimental-details: NCI-60 one-dose screen, 48 h (100 = growth as untreated, 0 = no growth, -100 = all killed)
- condition-context: 10 µM unless noted
Compounds without any hit were thinned out: in the full panel of roughly 83,000, 20% have a hit.
quantity-kind: growth (%)

> print(dat)
                               entry.smiles    tested.target  quantity.kind  quantitative.readout
1    CSc1ccccc1C#C/C=C\C#Cc1ccccc1N1CCCC1=O  A549/ATCC NSCLC         growth                  63.2
2            NC(N)=NC(N)=Nc1ccccc1-c1ccccc1  A549/ATCC NSCLC         growth                   105
3  COc1cc2nc(SCc3cc(OC)c(OC)c(OC)c3)n(Cc3ccccc3)c(=O)c2cc1OC  A549/ATCC NSCLC         growth                  36.9
4  COc1ccc(-c2nnc(COc3ccc(NS(=O)(=O)c4ccc(OC)cc4)cc3F)o2)cc1  A549/ATCC NSCLC         growth                  62.8
5  CCCCNc1nnc(-c2cc(-c3cc4ccccc4o3)nn2-c2ccccc2)o1  A549/ATCC NSCLC         growth                    82

The values you see were collected from PubChem BioAssay (NCI).
